System Tested: EPHA5 (Homo sapiens, UniProt P54756);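 also: compound tested at 10 µM with 2 µM protein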
Construct: purchased in-house DSF panel (SGC Frankfurt)
Sequence (P54756 653-939): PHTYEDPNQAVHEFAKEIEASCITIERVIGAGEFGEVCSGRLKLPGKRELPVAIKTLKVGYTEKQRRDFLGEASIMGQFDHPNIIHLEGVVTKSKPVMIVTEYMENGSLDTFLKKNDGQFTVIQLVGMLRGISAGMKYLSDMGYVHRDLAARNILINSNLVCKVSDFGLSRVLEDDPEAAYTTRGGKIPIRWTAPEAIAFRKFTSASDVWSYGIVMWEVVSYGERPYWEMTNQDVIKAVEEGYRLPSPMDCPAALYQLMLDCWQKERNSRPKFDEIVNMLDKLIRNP
Experiment Notes: DSF
Format: binding
So I've got a bunch of compounds here, and I need their ΔTm EPHA5 values.
One number for each entry, in °C.

The following compounds have reported results that may help.
>>> measured("COC(=O)c1cc(Nc2ccnc(NCc3ccc(NC(=O)OC(C)(C)C)cc3)n2)[nH]n1 [21i]")
0.2
>>> measured("CC(C)(C)OC(=O)Nc1ccc(CNc2nccc(Nc3cc(C(=O)OC(C)(C)C)[nH]n3)n2)cc1 [43d]")
-2.7
>>> measured("N#CCc1ccc(Nc2nccc(Nc3cc(C4CC4)[nH]n3)n2)cc1 [compound 1, reference compound]")
6.3
>>> measured("CC(C)OC(=O)c1cc(Nc2ccnc(NCc3ccc(NC(=O)OC(C)(C)C)cc3)n2)n[nH]1 [42d]")
-0.6

Now consider a different compound.
Query string: Query: ΔTm EPHA5; subject: COC(=O)c1cc(Nc2ccnc(NCCOCCNC(=O)OC(C)(C)C)n2)[nH]n1 [21d]
Result string: 0.2

Recorded values, source paper PMC9736855.
